- TARGET OR TEST SYSTEM: human TLR8 (Homo sapiens, UniProt Q9NR97)
- Sequence (Q9NR97 27-1041): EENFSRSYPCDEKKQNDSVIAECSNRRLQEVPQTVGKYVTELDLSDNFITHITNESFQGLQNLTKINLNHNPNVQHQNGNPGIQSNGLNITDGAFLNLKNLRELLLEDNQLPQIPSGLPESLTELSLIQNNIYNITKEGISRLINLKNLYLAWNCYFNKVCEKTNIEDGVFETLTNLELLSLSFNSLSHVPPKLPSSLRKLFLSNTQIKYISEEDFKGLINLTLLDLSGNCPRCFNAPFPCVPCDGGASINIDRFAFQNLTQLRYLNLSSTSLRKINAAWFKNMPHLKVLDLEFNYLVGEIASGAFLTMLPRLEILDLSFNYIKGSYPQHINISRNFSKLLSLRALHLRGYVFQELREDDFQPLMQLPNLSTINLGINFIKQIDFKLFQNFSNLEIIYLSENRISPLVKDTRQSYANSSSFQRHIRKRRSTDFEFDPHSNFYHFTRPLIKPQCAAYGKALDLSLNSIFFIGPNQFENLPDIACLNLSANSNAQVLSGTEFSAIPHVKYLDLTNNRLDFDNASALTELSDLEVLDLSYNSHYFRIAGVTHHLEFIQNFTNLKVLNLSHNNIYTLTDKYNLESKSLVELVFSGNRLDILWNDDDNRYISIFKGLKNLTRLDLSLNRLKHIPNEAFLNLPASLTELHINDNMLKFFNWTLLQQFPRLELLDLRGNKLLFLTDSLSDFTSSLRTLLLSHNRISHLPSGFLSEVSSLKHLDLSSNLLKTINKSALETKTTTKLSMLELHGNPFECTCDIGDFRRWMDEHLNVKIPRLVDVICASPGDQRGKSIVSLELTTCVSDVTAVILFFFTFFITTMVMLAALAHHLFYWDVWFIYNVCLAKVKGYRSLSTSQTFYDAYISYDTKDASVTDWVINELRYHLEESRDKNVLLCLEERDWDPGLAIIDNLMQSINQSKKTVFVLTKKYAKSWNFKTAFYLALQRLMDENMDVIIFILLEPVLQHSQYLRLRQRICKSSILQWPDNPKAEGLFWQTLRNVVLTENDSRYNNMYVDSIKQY
- MEASUREMENT DESCRIPTION: HEK293-Blue-hTLR-8 cells assay (SEAP reporter, R848 stimulation)
- CONDITION DETAILS: HEK293-Blue-hTLR8 cells, R848, 20 hrs; 0.003 is the lowest tested concentration; read-out: HEK/hTLR8 IC50
pIC50: −log10 of the molar value.
Would you mind labelling by pIC50? At or over 8 is Fulfilled, under is Not fulfilled.

compound="C[C@@H]1CN(c2ccc3c(c2)CN(C[C@H]2CN(c4ccc(C#N)c5ncccc45)C[C@@H](C)O2)C3)CCN1 [Example 62]" qualitative_label=Fulfilled
compound="C[C@@H]1CN(c2ccc(C#N)c3ncccc23)C[C@H](CN2Cc3cc(N4CCNCC4)cnc3C2)O1 [Example 20]" qualitative_label=Fulfilled
compound="CCOC(=O)C1CNCCN1c1ccc2c(c1)CN(C[C@H]1CN(c3ccc(C#N)c4ncccc34)C[C@@H](C)O1)C2 (some centres unmarked) [Example 50]" qualitative_label="Not fulfilled"
compound="CC1CNCCN1c1ccc2c(c1)CN(C[C@H]1CN(c3ccc(C#N)c4ncccc34)C[C@@H](C)O1)C2 (some centres unmarked) [Example 78]" qualitative_label=Fulfilled
compound="COC(=O)C1CN(c2ccc3c(c2)CN(C[C@H]2CN(c4ccc(C#N)c5ncccc45)C[C@@H](C)O2)C3)CCN1 (some centres unmarked) [Example 67]" qualitative_label="Not fulfilled"

Inquiry: Entry C[C@@H]1CN(c2ccc(C#N)c3ncccc23)C[C@H](CN2Cc3ccc(N4CCNCC4C(F)F)cc3C2)O1 (some centres unmarked) [Example 76] : is its pIC50 no less than 8?
Reply text: Fulfilled

Inquiry: Entry C[C@@H]1CN(c2ccc(Cl)c3nccnc23)C[C@H](CN2Cc3ccc(N4CCNCC4)cc3C2)O1 [Example 33] : is its pIC50 no less than 8?
Reply text: Fulfilled
